# TEST TARGET: MeCP2-TBL1 interaction (MeCP2-SmBiT / TBL1-LgBiT) (Mus musculus)
# Construct: expressed in transfected cells; crude lysate used as a cell-free assay
# Sequence (Q9QXE7 166-527): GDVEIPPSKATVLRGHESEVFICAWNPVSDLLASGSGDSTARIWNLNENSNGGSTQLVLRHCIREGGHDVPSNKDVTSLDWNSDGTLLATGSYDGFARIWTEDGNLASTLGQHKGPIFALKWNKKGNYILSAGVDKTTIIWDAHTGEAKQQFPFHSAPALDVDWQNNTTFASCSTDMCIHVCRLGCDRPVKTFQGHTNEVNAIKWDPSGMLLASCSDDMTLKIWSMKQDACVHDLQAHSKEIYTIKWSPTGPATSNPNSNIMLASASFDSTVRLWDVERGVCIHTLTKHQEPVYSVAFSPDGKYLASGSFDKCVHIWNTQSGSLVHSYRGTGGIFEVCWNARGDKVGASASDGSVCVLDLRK
# METHOD NOTES: MeCP2-TBL1 NanoLuc luciferase complementation assay (cell-free, extracts of transfected HEK293 cells);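 also: each compound tested at 20 µM final concentration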
# Type: binding, human
# CONDITION: primary screen of the Asinex library, sheet "Sargen output Asinex library", one well per compound
Reported Inhibition percent values are given for each entry in this list.
Number only, in %; omit the unit.

Guide cases for Inhibition percent, answers given:
{"columns": ["COMPOUND", "NUMERIC VALUE"],
 "data": [
  ["O=C1OC2(CCCN(C(=O)c3ccnc(N4CCOCC4)c3)CC2)CN1CCc1ccccc1 (stereo not shown)", -1.73],
  ["CC(C)(NC(=O)c1ccccc1)C(=O)N1C[C@@H](c2ccc(F)cc2)[C@@]2(CCCC(=O)N2)C1", 0.18],
  ["CC(C)(NC(=O)c1cccc(F)c1)C(=O)N1CCC(c2cccc(Cc3ccccc3)n2)CC1", -0.56]
]}

With those in mind, consider the next compound.
[Q] Which Inhibition percent is listed for COc1cccc(Oc2cc(C)nc(C3CCCCN3C(=O)c3cccc(-n4cnnc4)c3)n2)c1 (stereo not shown) ?
[A] -5.24
